Items are presented alongside their recorded melting point.

Recorded results for 8 compounds are shown here.
COMPOUND: Cc1c(-c2cc(F)cc(C(F)(F)F)c2)ccc(N)c1C#N
VALUE: 96 to 97 °C

COMPOUND: CCOC(=O)Nc1sc(C)c(C#N)c1S(=O)(=O)NC(=S)NC(C)C
VALUE: 169 to 171 °C

COMPOUND: COc1cc2sc(C#N)cc2cc1OC(F)F
VALUE: 99 to 101 °C

COMPOUND: COc1ccc(-c2nnc3c4ccccc4c(CNCCCC#N)nn23)cc1
VALUE: 117 to 119 °C

COMPOUND: CC(C)C(=O)NS(=O)(=O)c1cccc([N+](=O)[O-])c1
VALUE: 136 to 138 °C

COMPOUND: CCOc1c(OC)cc([N+](=O)[O-])c2ncccc12
VALUE: 88 to 95 °C

COMPOUND: CC(=O)N[C@@H](Cc1ccc2ccccc2c1)C(=O)OCc1cc(C)cc(C)c1
VALUE: 96 to 97 °C

COMPOUND: Cc1cc(-c2ccc(C(F)(F)F)cc2)nc(-n2cnc(-c3ccc(S(N)(=O)=O)s3)c2)n1
VALUE: 277 °C

The compound identified as "Cc1ccc(C#N)c(Nc2ccccc2[N+](=O)[O-])c1" registered its melting point at 162 to 164 °C

The compound "CC1(C)OC(=O)Nc2ccc(-c3cc(C#N)cc(C#N)c3)cc21" showed melting point equal to 288 to 289 °C
